Where do the numbers come from? From the supplement of paper PMC12494721.

# System: Ruminococcus gnavus DSM 108212
# experimental-protocol: fold change of 2-Phenylethylamine concentration vs plate DMSO controls (fold change (ratio)); higher = more amine produced, active = hit call of the paper (significant change in both replicates, either direction)
# settings: incubation time: 27 h, anaerobic, 37 °C
Where a name gives a salt, the structure may show the parent alone.
Each entry below carries its reported fold change of 2-Phenylethylamine concentration.
metric-name: fold change of 2-Phenylethylamine concentration

{"compound": "N[C@H]1CONC1=O [(S,-) Cycloserine] (20 µM)", "endpoint-value": 0.81}
{"compound": "Cc1ccc2c(Cl)cc(Cl)c(O)c2n1 [Chlorquinaldol] (20 µM)", "endpoint-value": 0.332}
{"compound": "NC(=O)c1cnccn1 [Pyrazinamide] (20 µM)", "endpoint-value": 0.906}
{"compound": "CC(C)=CCOc1ccc(/C=C/C(=O)c2ccc(OCC=C(C)C)cc2OCC(=O)O)cc1 [Sofalcone] (20 µM)", "endpoint-value": 0.689}
{"compound": "CC[C@H](c1ccc(O)cc1)[C@@H](CC)c1ccc(O)cc1 [Hexestrol] (20 µM)", "endpoint-value": 0.749}
{"compound": "O=c1[nH]cnc2c1ncn2[C@H]1CC[C@@H](CO)O1 [Didanosine] (20 µM)", "endpoint-value": 1.16}
{"compound": "Cc1cn(-c2cc(NC(=O)c3ccc(C)c(Nc4nccc(-c5cccnc5)n4)c3)cc(C(F)(F)F)c2)cn1 [Nilotinib] (20 µM)", "endpoint-value": 0.897}
{"compound": "CC(C)(C)NC(=O)[C@@H]1CN(Cc2cccnc2)CCN1C[C@@H](O)C[C@@H](Cc1ccccc1)C(=O)N[C@H]1c2ccccc2C[C@H]1O [Indinavir sulfate] (20 µM)", "endpoint-value": 1.02}

====

# Tested on: Ruminococcus gnavus DSM 108212
# experimental-protocol: fold change of Tryptamine concentration vs plate DMSO controls (fold change (ratio)); higher = more amine produced, active = hit call of the paper (significant change in both replicates, either direction);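 for the amine columns active = adjusted P below 0.05 in both replicates with a change the same way and a mean fold change under 0.8 or over 1.25; inactive = the rest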
# settings: incubation time: 27 h, anaerobic, 37 °C
Structures can show the parent of a compound that is named as a salt.
Outcomes: active, inactive

{"compound": "CO[C@H]1/C=C/O[C@@]2(C)Oc3c(C)c(O)c4c(O)c(c(/C=N/N5CCN(C)CC5)c(O)c4c3C2=O)NC(=O)/C(C)=C\\C=C\\[C@H](C)[C@H](O)[C@@H](C)[C@@H](O)[C@@H](C)[C@H](OC(C)=O)[C@@H]1C [Rifampicin] (20 µM)", "assay-target": "Ruminococcus gnavus DSM 108212", "assigned-class": "active"}
{"compound": "CCCN1CCCC[C@H]1C(=O)Nc1c(C)cccc1C [Ropivacaine hydrochloride] (20 µM)", "assay-target": "Ruminococcus gnavus DSM 108212", "assigned-class": "inactive"}
{"compound": "CN1CCC[C@@H]1CCO[C@](C)(c1ccccc1)c1ccc(Cl)cc1 [Clemastine fumarate] (20 µM)", "assay-target": "Ruminococcus gnavus DSM 108212", "assigned-class": "inactive"}

====

# Test system: Clostridium sporogenes DSM 1664
# experimental-protocol: fold change of Tryptamine concentration vs plate DMSO controls (fold change (ratio)); higher = more amine produced, active = hit call of the paper (significant change in both replicates, either direction);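 for the amine columns active = adjusted P below 0.05 in both replicates with a change the same way and a mean fold change under 0.8 or over 1.25; inactive = the rest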
# settings: incubation time: 27 h, anaerobic, 37 °C
Counter-ions that a name gives are not always drawn.
Outcomes: t = active, f = inactive

{"compound": "CC1COc2ccccc2N1C(=O)C(Cl)Cl (stereo not drawn) (20 µM)", "assigned-class": "f"}
{"compound": "NNCCc1ccccc1 [Phenelzine sulfate] (20 µM)", "assigned-class": "f"}
{"compound": "CCN1CCN(C(=O)N[C@@H](C(=O)N[C@@H]2C(=O)N3[C@@H]2SC(C)(C)[C@@H]3C(=O)O)c2ccccc2)C(=O)C1=O [Piperacillin sodium salt] (20 µM)", "assigned-class": "t"}
{"compound": "NC(=O)Cc1cccc(C(=O)c2ccccc2)c1N [Nepafenac] (20 µM)", "assigned-class": "f"}
{"compound": "CC(=O)[C@H]1CC[C@H]2[C@@H]3C=CC4=CC(=O)CC[C@@]4(C)[C@@H]3CC[C@]12C [Dydrogesterone] (20 µM)", "assigned-class": "f"}
{"compound": "C[C@H](CC[C@@H](O[C@@H]1O[C@H](CO[C@@H]2O[C@H](CO)[C@@H](O)[C@H](O)[C@H]2O)[C@@H](O)[C@H](O)[C@H]1O[C@@H]1O[C@H](CO)[C@@H](O)[C@H](O)[C@H]1O)C(C)(C)O)[C@H]1CC[C@@]2(C)[C@@H]3CC=C4[C@@H](CC[C@H](O[C@@H]5O[C@H](CO[C@@H]6O[C@H](CO)[C@@H](O)[C@H](O)[C@H]6O)[C@@H](O)[C@H](O)[C@H]5O)C4(C)C)[C@]3(C)[C@H](O)C[C@]12C [Mogroside V] (50 µM)", "assigned-class": "f"}
{"compound": "CCN(CC)C(=O)/C(C#N)=C/c1cc(O)c(O)c([N+](=O)[O-])c1 [Entacapone] (20 µM)", "assigned-class": "f"}
{"compound": "COC(=O)[C@H](c1ccccc1Cl)N1CCc2sccc2C1 [Clopidogrel] (20 µM)", "assigned-class": "f"}
{"compound": "CC(=O)OCC(=O)[C@@]1(OC(C)=O)[C@@H](C)C[C@H]2[C@@H]3C[C@H](F)C4=CC(=O)C=C[C@]4(C)[C@@]3(F)[C@@H](O)C[C@@]21C [Diflorasone Diacetate] (20 µM)", "assigned-class": "f"}
{"compound": "CC(=O)Nc1nnc(S(N)(=O)=O)s1 [Acetazolamide] (20 µM)", "assigned-class": "f"}
{"compound": "CCn1cc(C(=O)O)c(=O)c2cc(F)c(N3CCNCC3)cc21 [Norfloxacin] (20 µM)", "assigned-class": "t"}
{"compound": "Clc1ccc(COC(Cn2ccnc2)c2ccc(Cl)cc2Cl)cc1 (stereo not drawn) [Econazole nitrate] (20 µM)", "assigned-class": "f"}
{"compound": "CNCCC(Oc1ccccc1OC)c1ccccc1 (stereo not drawn) [Nisoxetine hydrochloride] (20 µM)", "assigned-class": "f"}
